Test system: SmLux
experimental_details: Computationally generated LgLux variants expressed in E. coli, tested in lysates with SmLux and substrate 1c
Format: biochemical
condition_context: 50 uM substrate 1c, before SmLux peptide addition
Description: LgLux sequences were designed computationally, and their activity measured as depicted schematically in FIG. 45. A library of the computationally generated LgLux variants were expressed in E. coli and tested in lysates. 20 uM of SmLux and 50 uM of substrate 1c was used for the screening. LgLux_4039 sequence is as set forth in SEQ ID NO:2773. […]
endpoint: Baseline Signal (Normalized by expression)
Numbers only.

> print(dat)
                                   molecule  recorded.measurement
1  5278 (protein) MTPEAIRENVEAFYAALASGDWEAAKALFDPGVTITLWDGTTFTSVEEFRAWFEEQFQTSKDALREIVSMRIEGDTVRVLVRLTFTRDGETQVVDLLQLFKFV                 121.2
2  5118 (protein) MTPEEIIANVKAFYAALASGDLAAAKALFDPGTTITLWDGTTFTSLDEFLAWFEKQFKASKDAKREILDIEVEGDVVRVLVRLTYTVDGKEKVVDLLQLLKFV                   152
3  5109 (protein) MTPEEIRANVKAFYAALASGDLEKAKALFDPGTTITLWDGTTFTSLEEFLAWFEKQFKASKDAKREIVSMEINGDTVRVLVRLTYTVDGEEKVVDLLQLLKFV                   169

Next molecule, please.
Prompt line: Entry 5268 (protein) MTPEEIRENVRRFYAALASGDLEAAKSLFDPGVTITLWDGTTFTSVEEFRAWFEEQFQTSKDALREIVSLEVEGDVVRVLVRLTFVRDGEVQEVDLLQLFKFV has what Baseline Signal (Normalized by expression)?
Response line: 133
